- measurement target: T1, EphB4 (receptor of Table 1) (Mus musculus (Mouse), UniProt P54761 16-539)
- T1 sequence: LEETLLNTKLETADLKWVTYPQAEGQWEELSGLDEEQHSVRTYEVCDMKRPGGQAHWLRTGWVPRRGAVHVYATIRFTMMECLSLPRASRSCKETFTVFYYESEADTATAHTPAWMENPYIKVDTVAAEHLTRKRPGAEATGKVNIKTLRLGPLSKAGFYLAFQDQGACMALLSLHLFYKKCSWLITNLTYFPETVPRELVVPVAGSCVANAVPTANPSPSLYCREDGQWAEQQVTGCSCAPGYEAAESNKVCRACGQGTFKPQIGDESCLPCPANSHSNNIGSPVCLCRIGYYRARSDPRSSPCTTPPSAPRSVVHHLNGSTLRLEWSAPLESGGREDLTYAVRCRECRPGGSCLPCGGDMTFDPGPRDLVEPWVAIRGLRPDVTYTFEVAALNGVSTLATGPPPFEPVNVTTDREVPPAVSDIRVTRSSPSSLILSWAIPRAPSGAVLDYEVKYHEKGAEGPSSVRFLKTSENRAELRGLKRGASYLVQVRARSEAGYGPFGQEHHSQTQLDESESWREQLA
- measurement notes: inhibition of ephrin-B2 AP binding to EphB4 (panning receptor); limited by solubility
pIC50: −log10 of the molar value.
readout name: pIC50

Q: Give the value of pIC50 reported for the following: TYFDFQAWSIRA (Panned on EphB4) [TYFDFQAWSIRA peptide (SEQ ID NO:22)]
Ans: < 4.30
